- Tested Target: PKG1α(h) (Homo sapiens, UniProt Q13976)
- Sequence (Q13976 1-671): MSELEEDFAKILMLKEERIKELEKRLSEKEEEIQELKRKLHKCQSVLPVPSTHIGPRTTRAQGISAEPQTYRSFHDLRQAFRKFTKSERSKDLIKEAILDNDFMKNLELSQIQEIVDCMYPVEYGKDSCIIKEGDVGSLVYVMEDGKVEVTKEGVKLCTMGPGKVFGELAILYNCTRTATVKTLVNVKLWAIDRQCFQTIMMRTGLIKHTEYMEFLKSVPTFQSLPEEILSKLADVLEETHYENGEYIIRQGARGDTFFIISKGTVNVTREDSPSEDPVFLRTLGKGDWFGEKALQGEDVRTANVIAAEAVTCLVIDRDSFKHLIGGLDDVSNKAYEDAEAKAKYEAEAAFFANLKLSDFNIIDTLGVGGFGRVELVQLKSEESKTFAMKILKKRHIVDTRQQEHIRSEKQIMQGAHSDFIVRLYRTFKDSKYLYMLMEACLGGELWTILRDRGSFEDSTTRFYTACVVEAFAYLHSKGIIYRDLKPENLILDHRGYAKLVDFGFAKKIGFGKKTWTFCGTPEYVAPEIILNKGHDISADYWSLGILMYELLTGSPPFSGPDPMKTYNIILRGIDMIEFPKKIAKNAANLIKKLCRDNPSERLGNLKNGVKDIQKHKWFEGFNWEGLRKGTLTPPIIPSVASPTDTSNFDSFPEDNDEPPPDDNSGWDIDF
- Experimental Protocol: Kinase Profiling Assay
- Format: biochemical
- Assay Conditions: 100 μM
Measured % activity, listed per entry for reference.
Quantity: % activity (%)

[[record]]
residue_codes = "KAFAKLAARLYRKALARQLGVAA [MMI-0400]"
quantitative_result = 58

[[record]]
residue_codes = "HRRIKAWLKKIKALARQLGVAA [MMI-0500]"
quantitative_result = 25

[[record]]
residue_codes = "YARAAARQARAKALNRQLGVA [MMI-0200]"
quantitative_result = 70

[[record]]
residue_codes = "FAKLAARLYRKALARQLGVAA [MMI-0300]"
quantitative_result = 64


---

- Tested Target: mTOR/FKBP12(h) (Homo sapiens)
- Sequence (P42345 1362-2549 limits assumed): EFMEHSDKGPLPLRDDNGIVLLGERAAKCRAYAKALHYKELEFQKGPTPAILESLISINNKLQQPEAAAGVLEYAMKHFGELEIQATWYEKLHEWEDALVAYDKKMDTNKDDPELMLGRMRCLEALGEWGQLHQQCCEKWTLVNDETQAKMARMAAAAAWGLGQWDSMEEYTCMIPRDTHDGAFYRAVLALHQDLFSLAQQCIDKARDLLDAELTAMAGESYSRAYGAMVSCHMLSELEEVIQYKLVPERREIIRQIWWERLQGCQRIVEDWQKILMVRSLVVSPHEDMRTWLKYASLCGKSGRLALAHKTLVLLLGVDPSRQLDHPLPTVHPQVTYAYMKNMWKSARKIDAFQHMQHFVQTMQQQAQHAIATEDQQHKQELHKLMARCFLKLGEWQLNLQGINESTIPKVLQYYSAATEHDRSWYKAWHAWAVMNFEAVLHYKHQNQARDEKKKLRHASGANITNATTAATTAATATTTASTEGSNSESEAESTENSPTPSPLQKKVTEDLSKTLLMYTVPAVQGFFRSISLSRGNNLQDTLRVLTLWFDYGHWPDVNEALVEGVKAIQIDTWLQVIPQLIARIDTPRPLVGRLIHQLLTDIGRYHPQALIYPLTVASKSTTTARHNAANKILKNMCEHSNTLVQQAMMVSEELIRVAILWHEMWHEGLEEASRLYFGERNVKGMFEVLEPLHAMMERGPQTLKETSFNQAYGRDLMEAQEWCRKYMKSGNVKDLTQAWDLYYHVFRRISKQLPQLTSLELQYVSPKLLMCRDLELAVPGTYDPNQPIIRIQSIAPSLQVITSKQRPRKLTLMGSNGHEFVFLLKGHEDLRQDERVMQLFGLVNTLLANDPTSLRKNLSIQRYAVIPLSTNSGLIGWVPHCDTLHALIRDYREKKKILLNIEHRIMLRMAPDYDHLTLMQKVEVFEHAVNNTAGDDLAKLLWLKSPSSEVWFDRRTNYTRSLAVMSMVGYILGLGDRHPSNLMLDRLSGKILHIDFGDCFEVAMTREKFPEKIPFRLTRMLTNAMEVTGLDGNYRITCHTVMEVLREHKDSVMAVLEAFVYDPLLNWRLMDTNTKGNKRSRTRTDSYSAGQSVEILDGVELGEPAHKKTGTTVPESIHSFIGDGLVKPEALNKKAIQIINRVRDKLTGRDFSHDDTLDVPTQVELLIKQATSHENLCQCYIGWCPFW
- Experimental Protocol: Kinase Profiling Assay
- Assay type: biochemical
- Assay Conditions: 100 μM
Measured % activity, listed per entry for reference.
Quantity: % activity

[[record]]
residue_codes = "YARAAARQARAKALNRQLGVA [MMI-0200]"
quantity = "% activity"
result = "118%"

[[record]]
residue_codes = "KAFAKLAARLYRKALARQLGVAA [MMI-0400]"
quantity = "% activity"
result = "125%"

[[record]]
residue_codes = "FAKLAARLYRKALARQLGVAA [MMI-0300]"
quantity = "% activity"
result = "145%"

[[record]]
residue_codes = "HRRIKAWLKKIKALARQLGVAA [MMI-0500]"
quantity = "% activity"
result = "140%"


---

Measured % activity, listed per entry for reference.
- Tested Target: CDK6/cyclinD3(h) (Homo sapiens, UniProt Q00534)
- Sequence (Q00534 whole entry): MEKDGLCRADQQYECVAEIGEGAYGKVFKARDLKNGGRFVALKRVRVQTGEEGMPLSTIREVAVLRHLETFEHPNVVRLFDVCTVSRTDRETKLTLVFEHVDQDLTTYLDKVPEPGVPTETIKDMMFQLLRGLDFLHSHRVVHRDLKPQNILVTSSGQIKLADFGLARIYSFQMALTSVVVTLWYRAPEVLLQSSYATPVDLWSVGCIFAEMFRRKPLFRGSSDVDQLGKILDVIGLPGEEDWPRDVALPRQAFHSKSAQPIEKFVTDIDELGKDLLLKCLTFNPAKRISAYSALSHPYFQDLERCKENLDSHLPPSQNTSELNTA
- Sequence (P30281 whole entry partner): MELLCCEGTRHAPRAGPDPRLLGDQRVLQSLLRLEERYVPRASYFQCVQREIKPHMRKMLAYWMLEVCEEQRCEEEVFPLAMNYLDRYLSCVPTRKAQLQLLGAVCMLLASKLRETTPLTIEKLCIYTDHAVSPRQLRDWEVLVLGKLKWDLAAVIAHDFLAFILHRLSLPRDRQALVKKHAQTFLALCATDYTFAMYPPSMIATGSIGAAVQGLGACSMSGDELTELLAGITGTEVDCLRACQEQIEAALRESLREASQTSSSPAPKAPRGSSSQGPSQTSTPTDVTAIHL
- Experimental Protocol: Kinase Profiling Assay
- Type: biochemical
- Assay Conditions: 100 μM
Quantity: % activity (%)

[[record]]
residue_codes = "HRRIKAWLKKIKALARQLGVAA [MMI-0500]"
tested_target = "CDK6/cyclinD3(h) (Homo sapiens, UniProt Q00534)"
quantity_unit = "%"
quantitative_result = 23

[[record]]
residue_codes = "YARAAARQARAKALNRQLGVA [MMI-0200]"
tested_target = "CDK6/cyclinD3(h) (Homo sapiens, UniProt Q00534)"
quantity_unit = "%"
quantitative_result = 100

[[record]]
residue_codes = "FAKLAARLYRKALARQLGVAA [MMI-0300]"
tested_target = "CDK6/cyclinD3(h) (Homo sapiens, UniProt Q00534)"
quantity_unit = "%"
quantitative_result = 86

[[record]]
residue_codes = "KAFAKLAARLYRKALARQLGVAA [MMI-0400]"
tested_target = "CDK6/cyclinD3(h) (Homo sapiens, UniProt Q00534)"
quantity_unit = "%"
quantitative_result = 85


---

- Tested Target: MAPKAP-K3(h) (Homo sapiens, UniProt Q16644)
- Sequence (Q16644 whole entry): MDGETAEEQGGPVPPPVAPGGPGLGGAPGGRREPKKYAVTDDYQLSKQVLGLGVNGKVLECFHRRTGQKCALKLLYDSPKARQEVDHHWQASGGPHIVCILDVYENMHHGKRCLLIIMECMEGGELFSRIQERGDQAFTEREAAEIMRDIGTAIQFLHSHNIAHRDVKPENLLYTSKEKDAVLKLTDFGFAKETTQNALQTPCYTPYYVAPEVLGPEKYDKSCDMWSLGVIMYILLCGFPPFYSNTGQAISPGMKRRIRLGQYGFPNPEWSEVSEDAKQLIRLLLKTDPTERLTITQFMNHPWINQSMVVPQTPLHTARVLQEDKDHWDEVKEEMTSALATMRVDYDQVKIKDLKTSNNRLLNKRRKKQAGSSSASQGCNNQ
- Experimental Protocol: Kinase Profiling Assay
- Assay type: biochemical
- Assay Conditions: 100 μM
Quantity: % activity (%)

[[record]]
residue_codes = "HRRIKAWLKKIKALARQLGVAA [MMI-0500]"
quantity_unit = "%"
quantitative_result = 9

[[record]]
residue_codes = "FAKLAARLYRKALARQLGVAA [MMI-0300]"
quantity_unit = "%"
quantitative_result = 3

[[record]]
residue_codes = "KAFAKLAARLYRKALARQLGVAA [MMI-0400]"
quantity_unit = "%"
quantitative_result = 7

[[record]]
residue_codes = "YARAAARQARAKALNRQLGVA [MMI-0200]"
quantity_unit = "%"
quantitative_result = 39


---

Measured % activity, listed per entry for reference.
- Tested Target: NEK7(h) (Homo sapiens)
- Sequence (Q8TDX7 whole entry): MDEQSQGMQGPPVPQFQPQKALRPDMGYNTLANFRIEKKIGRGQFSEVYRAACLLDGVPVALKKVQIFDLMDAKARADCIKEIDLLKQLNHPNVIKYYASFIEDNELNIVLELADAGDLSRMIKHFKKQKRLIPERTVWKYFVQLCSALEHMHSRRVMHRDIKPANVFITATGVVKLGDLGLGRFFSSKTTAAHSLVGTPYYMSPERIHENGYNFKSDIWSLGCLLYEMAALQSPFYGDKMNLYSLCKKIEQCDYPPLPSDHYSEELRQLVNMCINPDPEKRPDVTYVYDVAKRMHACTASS
- Experimental Protocol: Kinase Profiling Assay
- Type: biochemical
- Assay Conditions: 100 μM
Quantity: % activity (%)

[[record]]
residue_codes = "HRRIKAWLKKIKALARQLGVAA [MMI-0500]"
tested_target = "NEK7(h) (Homo sapiens)"
quantitative_result = 89

[[record]]
residue_codes = "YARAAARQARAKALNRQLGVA [MMI-0200]"
tested_target = "NEK7(h) (Homo sapiens)"
quantitative_result = 96

[[record]]
residue_codes = "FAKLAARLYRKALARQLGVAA [MMI-0300]"
tested_target = "NEK7(h) (Homo sapiens)"
quantitative_result = 84

[[record]]
residue_codes = "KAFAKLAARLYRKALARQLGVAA [MMI-0400]"
tested_target = "NEK7(h) (Homo sapiens)"
quantitative_result = 87


---

- Tested Target: TAO2(h) (Homo sapiens, UniProt Q9UL54)
- Sequence (Q9UL54 1-1235): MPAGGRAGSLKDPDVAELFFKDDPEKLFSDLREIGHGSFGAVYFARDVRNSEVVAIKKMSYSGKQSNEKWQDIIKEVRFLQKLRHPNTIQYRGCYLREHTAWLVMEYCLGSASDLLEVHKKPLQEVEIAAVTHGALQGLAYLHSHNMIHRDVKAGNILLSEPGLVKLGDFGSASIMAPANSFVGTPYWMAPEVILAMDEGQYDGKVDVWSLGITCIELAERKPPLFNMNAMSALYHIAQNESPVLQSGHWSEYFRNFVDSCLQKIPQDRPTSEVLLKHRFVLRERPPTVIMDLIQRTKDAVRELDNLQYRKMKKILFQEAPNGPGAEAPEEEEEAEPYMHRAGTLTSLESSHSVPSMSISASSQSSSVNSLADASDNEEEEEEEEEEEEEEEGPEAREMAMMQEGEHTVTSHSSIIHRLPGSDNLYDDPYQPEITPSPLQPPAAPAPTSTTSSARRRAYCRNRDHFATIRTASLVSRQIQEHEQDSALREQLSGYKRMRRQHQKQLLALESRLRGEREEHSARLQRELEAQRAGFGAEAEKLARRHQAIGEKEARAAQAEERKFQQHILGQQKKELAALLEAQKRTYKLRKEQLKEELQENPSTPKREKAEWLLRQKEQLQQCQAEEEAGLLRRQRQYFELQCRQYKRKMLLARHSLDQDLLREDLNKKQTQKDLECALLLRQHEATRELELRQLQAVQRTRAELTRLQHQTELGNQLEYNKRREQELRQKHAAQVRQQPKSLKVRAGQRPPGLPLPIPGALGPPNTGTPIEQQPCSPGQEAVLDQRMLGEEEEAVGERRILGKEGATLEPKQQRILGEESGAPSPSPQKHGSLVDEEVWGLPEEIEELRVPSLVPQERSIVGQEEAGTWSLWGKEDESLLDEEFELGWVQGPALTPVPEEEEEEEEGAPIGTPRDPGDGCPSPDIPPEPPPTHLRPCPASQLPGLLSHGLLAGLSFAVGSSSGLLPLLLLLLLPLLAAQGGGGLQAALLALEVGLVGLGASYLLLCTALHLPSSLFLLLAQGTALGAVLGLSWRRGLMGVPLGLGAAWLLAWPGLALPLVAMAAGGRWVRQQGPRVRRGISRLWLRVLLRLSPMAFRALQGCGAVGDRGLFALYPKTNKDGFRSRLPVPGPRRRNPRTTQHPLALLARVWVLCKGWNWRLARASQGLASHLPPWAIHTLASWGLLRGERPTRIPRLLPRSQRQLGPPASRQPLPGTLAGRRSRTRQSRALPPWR
- Experimental Protocol: Kinase Profiling Assay
- Format: biochemical
- Assay Conditions: 100 μM
Measured % activity, listed per entry for reference.
Quantity: % activity (%)

[[record]]
residue_codes = "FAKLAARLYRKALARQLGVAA [MMI-0300]"
quantity = "% activity"
quantitative_result = 70

[[record]]
residue_codes = "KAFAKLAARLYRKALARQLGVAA [MMI-0400]"
quantity = "% activity"
quantitative_result = 74

[[record]]
residue_codes = "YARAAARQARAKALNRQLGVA [MMI-0200]"
quantity = "% activity"
quantitative_result = 93

[[record]]
residue_codes = "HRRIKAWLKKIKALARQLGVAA [MMI-0500]"
quantity = "% activity"
quantitative_result = 15

